# Study System: human mini-Sirt1 (aa 183-505-(GGGS)2-641-665) (Homo sapiens, UniProt Q96EB6)
# Construct: aa 183-505-(GGGS)2-641-665; made in house; host or cells: E. coli CodonPlus(DE3)
# Sequence (Q96EB6 with tags, fused parts or gaps limits assumed): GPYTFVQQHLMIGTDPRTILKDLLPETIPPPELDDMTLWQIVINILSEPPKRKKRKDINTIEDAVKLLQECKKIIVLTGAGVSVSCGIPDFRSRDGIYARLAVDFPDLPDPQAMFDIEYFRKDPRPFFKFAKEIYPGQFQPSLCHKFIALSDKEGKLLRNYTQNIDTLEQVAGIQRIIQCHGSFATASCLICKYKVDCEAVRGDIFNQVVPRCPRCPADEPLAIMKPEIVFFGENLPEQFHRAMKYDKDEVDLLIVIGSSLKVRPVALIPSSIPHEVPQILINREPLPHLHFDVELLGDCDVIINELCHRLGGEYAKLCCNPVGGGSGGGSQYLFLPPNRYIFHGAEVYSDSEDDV
# Experimental Protocol: FdL assay, mini-Sirt1
# Type: biochemical
# Assay Setup: FdL-1 at substrate Km, 15% (v/v) DMSO, 37 °C, pH 7.8; ± s.d., n = 3; read-out: IC50 (FdL assay), mini-Sirt1, non-acetylated Tat-46–54
pIC50: −log10 of the molar value. Where no end group is shown, it is not given here.

{"columns": ["Monomer Sequence", "pIC50"],
 "data": [
  ["SYGRKKRRQ [Tat-46–54]", 3.88]
]}
